// values below are reported GGT Increase - Index Value
# Tested on: Hepatotoxicity
# assay_explanation: FDA HLAED, gamma-glutamyl transferase (GGT) increase
# setup_conditions: human

Worked examples, 2 molecules total:
molecule: CCCCc1nc(Cl)c(CO)n1Cc1ccc(-c2ccccc2-c2nn[nH]n2)cc1
GGT Increase - Index Value: 0.6
//
molecule: CN(C/C=C/c1ccccc1)Cc1cccc2ccccc12
GGT Increase - Index Value: 0

Bench note: what GGT Increase - Index Value did Cn1cc([S+](C)[O-])c(=O)c2ccc(F)cc21 (stereo not drawn) show?
0

Next up: Nc1ccn(C[C@@H](CO)OCP(=O)(O)O)c(=O)n1.O.O
0

Ok, now O=C1CC[C@@]2(O)[C@H]3Cc4ccc(O)c5c4[C@@]2(CCN3CC2CC2)[C@H]1O5 [NALTREXONE]
0

And then C[N+](C)(C)C[C@H](O)CC(=O)[O-] , what is it?
0

What would you report for CC[N+](C)(C)Cc1ccccc1Br.Cc1ccc(S(=O)(=O)[O-])cc1 [BRETYLIUM TOSYLATE] ?
0

Then COC(=O)CCc1ccc(OCC(O)CNC(C)C)cc1 (stereo not drawn) ?
0

* * *

# Composite Activity - Active per record follows
# Tested on: Hepatotoxicity
# assay_explanation: FDA HLAED, liver enzyme composite activity
# setup_conditions: human

molecule: COCCc1ccc(OCC(O)CNC(C)C)cc1 (stereo not given) [METOPROLOL]
result: 0

molecule: COc1cc(NCc2ccc3nc(N)nc(N)c3c2C)cc(OC)c1OC [TRIMETREXATE]
result: 1

molecule: NCC1(CC(=O)O)CCCCC1 [GABAPENTIN]
result: 0

molecule: CNCCC(Oc1ccc(C(F)(F)F)cc1)c1ccccc1 (stereo not given) [FLUOXETINE]
result: 3

molecule: CCN1CCN(C(=O)N[C@@H](C(=O)N[C@@H]2C(=O)N3[C@@H]2SC(C)(C)[C@@H]3C(=O)O)c2ccccc2)C(=O)C1=O [PIPERACILLIN]
result: 0

Quick one: Composite Activity - Active for CCCN1CCCC[C@H]1C(=O)Nc1c(C)cccc1C [ROPIVACAINE] ?
0

Next: Nc1cc(-c2ccncc2)c[nH]c1=O [INAMRINONE]
0

// next record CO[C@@]1(NC(=O)Cc2cccs2)C(=O)N2C(C(=O)O)=C(COC(N)=O)CS[C@@H]21 [CEFOXITIN]
0

Try the molecule CC(C(=O)O)c1ccc(-c2ccccc2)c(F)c1 (stereo not given) [FLURBIPROFEN]
0

Another molecule: COCCCC/C(=N\OCCN)c1ccc(C(F)(F)F)cc1 [FLUVOXAMINE]
2

Same question, CCCC(=O)Nc1ccc(OCC(O)CNC(C)C)c(C(C)=O)c1 (stereo not given) [ACEBUTOLOL] this time
0

// next record CCN1CCN(C(=O)N[C@@H](C(=O)N[C@@H]2C(=O)N3C(C(=O)O)=C(CSc4nnnn4C)CS[C@H]23)c2ccc(O)cc2)C(=O)C1=O [CEFOPERAZONE]
0

For FC(F)OC(Cl)C(F)(F)F (stereo not given) [ISOFLURANE] then?
0

Thanks! And CCOC(=O)[C@H](CCc1ccccc1)N[C@H]1CCc2ccccc2N(CC(=O)O)C1=O [BENAZEPRIL] ?
0

Now consider CCN(CC)CCNC(=O)c1cc(Cl)c(N)cc1OC [METOCLOPRAMIDE] and answer again.
0

* * *

# Tested on: Hepatotoxicity
# assay_explanation: FDA HLAED, alkaline phosphatase increase
# setup_conditions: human
property_measured: Alkaline Phosphatase Increase - Activity Score

Below are worked cases with known answers.
molecule: CCn1cc(C(=O)O)c(=O)c2cc(F)c(N3CCNCC3)cc21
assayed_system: Hepatotoxicity
result: Active
--
molecule: CC(=O)Nc1ccc(O)cc1
assayed_system: Hepatotoxicity
result: Marginally Active
--
molecule: CCCc1c2oc(C(=O)O)cc(=O)c2cc2c(=O)cc(C(=O)O)n(CC)c12
assayed_system: Hepatotoxicity
result: Inactive
--
molecule: COc1ccc(Cl)cc1C(=O)NCCc1ccc(S(=O)(=O)NC(=O)NC2CCCCC2)cc1 [GLYBURIDE]
assayed_system: Hepatotoxicity
result: Marginally Active
--
molecule: CCn1nc(C(=O)O)c(=O)c2cc3c(cc21)OCO3
assayed_system: Hepatotoxicity
result: Inactive
--
molecule: C#C[C@]1(O)CC[C@H]2[C@@H]3CCC4=CC(=O)CC[C@@H]4[C@H]3CC[C@@]21CC
assayed_system: Hepatotoxicity
result: Active
--
molecule: CCCCCc1cc(O)c2c(c1)OC(C)(C)[C@@H]1CCC(C)=C[C@@H]21
assayed_system: Hepatotoxicity
result: Inactive
--
molecule: Cc1ccc(C(=O)Oc2ccc(C(O)CNC(C)(C)C)cc2OC(=O)c2ccc(C)cc2)cc1 (stereo not given)
assayed_system: Hepatotoxicity
result: Inactive

Could you share which Alkaline Phosphatase Increase - Activity Score value was measured for CCCCc1nc(Cl)c(CO)n1Cc1ccc(-c2ccccc2-c2nn[nH]n2)cc1 ?
Inactive

Record: CCC1=C[C@@H]2CN(C1)Cc1c([nH]c3ccccc13)[C@@](C(=O)OC)(c1cc3c(cc1OC)N(C)[C@H]1[C@@](O)(C(=O)OC)[C@H](OC(C)=O)[C@]4(CC)C=CCN5CC[C@]31[C@@H]54)C2
Inactive

Cool, now FC(F)OC(F)C(F)(F)F (stereo not given)
Inactive

Please give the result for CCC(=O)O[C@@H](O[P@](=O)(CCCCc1ccccc1)CC(=O)N1C[C@H](C2CCCCC2)C[C@H]1C(=O)O)C(C)C too.
Inactive

Queued: CCCCCCCCCCCCCCCCCC(=O)O.CC[C@H]1OC(=O)[C@H](C)[C@@H](O[C@H]2C[C@@](C)(OC)[C@@H](O)[C@H](C)O2)[C@H](C)[C@@H](O[C@@H]2O[C@H](C)C[C@H](N(C)C)[C@H]2OC(C)=O)[C@](C)(O)C[C@@H](C)C(=O)[C@H](C)[C@@H](O)[C@]1(C)O [ERYTHROMYCIN ACISTRATE]
Active

Another molecule to look at: CCc1cccc2c3c([nH]c12)C(CC)(CC(=O)O)OCC3 (stereo not given)
Inactive

Same again, this time with N=C(N)N/N=C/c1c(Cl)cccc1Cl
Inactive

* * *

# System: Hepatotoxicity
# assay_explanation: FDA HLAED, gamma-glutamyl transferase (GGT) increase
# setup_conditions: human
property_measured: GGT Increase - Index Value
Respond with the number and no other words.

Worked cases, answers included:
molecule: CC1=C(C(=O)O)N2C(=O)[C@@H](NC(=O)[C@H](N)c3ccc(O)cc3)[C@H]2SC1
GGT Increase - Index Value: 0
--
molecule: CC(C)COCC(CN(Cc1ccccc1)c1ccccc1)N1CCCC1 (centres undefined)
GGT Increase - Index Value: 0
--
molecule: Cn1cnc([N+](=O)[O-])c1Sc1ncnc2nc[nH]c12
GGT Increase - Index Value: 3.3

What value of GGT Increase - Index Value has been reported for the following molecule? CN1C2CCCC1CC(NC(=O)c1nn(C)c3ccccc13)C2 (centres undefined)
0.2

* * *

# Tested on: Hepatotoxicity
# assay_explanation: FDA HLAED, serum glutamic oxaloacetic transaminase (SGOT) increase
# setup_conditions: human
property_measured: SGOT Increase - Activity Score

# annotated cases, reported SGOT Increase - Activity Score shown
compound: CC(=O)N(CC(O)CN(C(C)=O)c1c(I)c(C(=O)NCC(O)CO)c(I)c(C(=O)NCC(O)CO)c1I)c1c(I)c(C(=O)NCC(O)CO)c(I)c(C(=O)NCC(O)CO)c1I (stereo not given)
property_measured: SGOT Increase - Activity Score
result: Inactive

compound: CCn1cc(C(=O)O)c(=O)c2cc(F)c(N3CCNCC3)cc21
property_measured: SGOT Increase - Activity Score
result: Active

compound: CCOC(=O)CCC(=O)O[C@H]1[C@H](O[C@@H]2[C@@H](C)[C@H](O[C@H]3C[C@@](C)(OC)[C@@H](O)[C@H](C)O3)[C@@H](C)C(=O)O[C@H](CC)[C@@](C)(O)[C@H](O)[C@@H](C)C(=O)[C@H](C)C[C@@]2(C)O)O[C@H](C)C[C@@H]1N(C)C [ERYTHROMYCIN ETHYLSUCCINATE]
property_measured: SGOT Increase - Activity Score
result: Active

compound: Cc1cc(CC(=O)O)n(C)c1C(=O)c1ccc(Cl)cc1 [ZOMEPIRAC]
property_measured: SGOT Increase - Activity Score
result: Inactive

Look up SGOT Increase - Activity Score with Hepatotoxicity for this compound: Cc1cn([C@H]2C=C[C@@H](CO)O2)c(=O)[nH]c1=O
Active

Now the same for Clc1ccc2c(c1)C(c1ccccc1)=NCc1nncn1-2
Inactive

Same read-out for Cc1nnc2n1-c1ccc(Cl)cc1C(c1ccccc1)=NC2 ?
Inactive

* * *

# System: Hepatotoxicity
# assay_explanation: FDA HLAED, serum glutamic pyruvic transaminase (SGPT) increase
# setup_conditions: human
property_measured: SGPT Increase - Number of Reports

These recorded examples may help you get a feel for the data.
molecule: CC(C)c1nc(CN(C)C(=O)N[C@H](C(=O)N[C@@H](Cc2ccccc2)C[C@H](O)[C@H](Cc2ccccc2)NC(=O)OCc2cncs2)C(C)C)cs1 [RITONAVIR]
result: >= 4
--
molecule: C[C@H](CCC(=O)O)[C@H]1CC[C@H]2[C@@H]3[C@H](O)C[C@@H]4C[C@H](O)CC[C@]4(C)[C@H]3CC[C@]12C [CHENODIOL]
result: < 4
--
molecule: C[N+](C)(C)CCO.Cn1c(=O)c2[n-]cnc2n(C)c1=O [OXTRIPHYLLINE]
result: < 4
--
molecule: O=C(O)CCCCCCCC(=O)O [AZELAIC ACID]
result: < 4
--
molecule: CCCCC(=O)O[C@H]1CC[C@H]2[C@@H]3CCc4cc(O)ccc4[C@H]3CC[C@]12C [ESTRADIOL VALERATE]
result: >= 4
--
molecule: CCN(CC)CCNC(=O)c1ccc(N)cc1 [PROCAINAMIDE]
result: < 4
--
molecule: CC(=O)O[C@H]1C[C@@H]2CC[C@@H]3[C@H](CC[C@@]4(C)[C@H]3C[C@H]([N+]3(C)CCCCC3)[C@@H]4OC(C)=O)[C@@]2(C)C[C@@H]1N1CCCCC1.[Br-] [VECURONIUM BROMIDE]
result: < 4
--
molecule: COc1ccc(Cl)cc1C(=O)NCCc1ccc(S(=O)(=O)NC(=O)NC2CCCCC2)cc1 [GLYBURIDE]
result: >= 4
--
molecule: COCC1=C(C(=O)O)N2C(=O)[C@@H](NC(=O)/C(=N\OC)c3csc(N)n3)[C@H]2SC1 [CEFPODOXIME]
result: >= 4
--
molecule: CC(C)N1CCN(c2ccc(OCC3COC(Cn4cncn4)(c4ccc(Cl)cc4Cl)O3)cc2)CC1 (centres undefined) [TERCONAZOLE]
result: < 4

Which SGPT Increase - Number of Reports reading was recorded for the molecule CC(CN(C)C)CN1c2ccccc2CCc2ccccc21 (centres undefined) [TRIMIPRAMINE] ?
< 4

Next entry: CC(C)Cc1ccc(C(C)C(=O)O)cc1 (centres undefined) [IBUPROFEN]
>= 4

Another molecule: Clc1ccc(C(Cn2ccnc2)OCc2ccsc2Cl)c(Cl)c1 (centres undefined) [TIOCONAZOLE]
< 4

Another molecule: CC1=C(C(=O)O)N2C(=O)[C@@H](NC(=O)[C@H](N)c3ccc(O)cc3)[C@H]2SC1 [CEFADROXIL]
< 4
